pKi: −log10 of the molar value. Non-standard residues stand in square brackets, D forms with d. Residues, ends and D or L forms follow the SMILES beside them. Nle = CCCC[C@H](N)C(=O)O; Sar = CNCC(=O)O
The following compounds each carry a recorded pKi for Furin (Homo sapiens).

input: Item C[C@H](NC(=O)[C@H](CCCCN)NC(=O)[C@H](CCCCN)NC(=O)[C@H](CCCN=C(N)N)NC(=O)[C@H](CCCN=C(N)N)NC(=O)[C@H](CCCN=C(N)N)NC(=O)[C@H](CCC(=O)O)NC(=O)[C@H](CCCN=C(N)N)NC(=O)[C@@H]1CCCN1C(=O)[C@@H](N)[C@@H](C)O)C(=O)N(C)CC(=O)O (H-TPRERRRKKA[Sar]-OH) has what recorded pKi?
output: < 7.00

input: Item CCCC[C@H](NC(=O)[C@H](CCCN=C(N)N)NC(=O)[C@H](CCCCN)NC(=O)[C@H](CCCCN)NC(=O)[C@H](CCCN=C(N)N)NC(=O)[C@H](CCCN=C(N)N)NC(=O)[C@H](CCCN=C(N)N)NC(=O)[C@H](C)NC(=O)[C@H](CCCN=C(N)N)NC(=O)[C@H](CCC(N)=O)NC(=O)[C@@H]1CCCN1C(=O)[C@@H](N)[C@@H](C)O)C(=O)O (H-TPQRARRRKKR[Nle]-OH) has what recorded pKi?
output: < 7.00

input: Item C[C@H](NC(=O)[C@H](CCC(=O)O)NC(=O)[C@H](CCCNC(=N)N)NC(=O)[C@@H]1CCCN1C(=O)[C@@H](N)[C@@H](C)O)C(=O)N[C@@H](CCCNC(=N)N)C(=O)N[C@@H](CCCNC(=N)N)C(=O)N[C@@H](CCCCN)C(=O)N[C@@H](CCCCN)C(=O)N[C@@H](CCCNC(=N)N)C(=O)N(C)CC(=O)O (H-TPREARRKKR[Sar]-OH) has what recorded pKi?
output: < 7.00

Hello, the source for this data is ChEMBL document CHEMBL1156471, in case you need it.
